# TARGET_ENTITY: KV7.2 channel (Homo sapiens)
# Sequence (O43526 whole entry): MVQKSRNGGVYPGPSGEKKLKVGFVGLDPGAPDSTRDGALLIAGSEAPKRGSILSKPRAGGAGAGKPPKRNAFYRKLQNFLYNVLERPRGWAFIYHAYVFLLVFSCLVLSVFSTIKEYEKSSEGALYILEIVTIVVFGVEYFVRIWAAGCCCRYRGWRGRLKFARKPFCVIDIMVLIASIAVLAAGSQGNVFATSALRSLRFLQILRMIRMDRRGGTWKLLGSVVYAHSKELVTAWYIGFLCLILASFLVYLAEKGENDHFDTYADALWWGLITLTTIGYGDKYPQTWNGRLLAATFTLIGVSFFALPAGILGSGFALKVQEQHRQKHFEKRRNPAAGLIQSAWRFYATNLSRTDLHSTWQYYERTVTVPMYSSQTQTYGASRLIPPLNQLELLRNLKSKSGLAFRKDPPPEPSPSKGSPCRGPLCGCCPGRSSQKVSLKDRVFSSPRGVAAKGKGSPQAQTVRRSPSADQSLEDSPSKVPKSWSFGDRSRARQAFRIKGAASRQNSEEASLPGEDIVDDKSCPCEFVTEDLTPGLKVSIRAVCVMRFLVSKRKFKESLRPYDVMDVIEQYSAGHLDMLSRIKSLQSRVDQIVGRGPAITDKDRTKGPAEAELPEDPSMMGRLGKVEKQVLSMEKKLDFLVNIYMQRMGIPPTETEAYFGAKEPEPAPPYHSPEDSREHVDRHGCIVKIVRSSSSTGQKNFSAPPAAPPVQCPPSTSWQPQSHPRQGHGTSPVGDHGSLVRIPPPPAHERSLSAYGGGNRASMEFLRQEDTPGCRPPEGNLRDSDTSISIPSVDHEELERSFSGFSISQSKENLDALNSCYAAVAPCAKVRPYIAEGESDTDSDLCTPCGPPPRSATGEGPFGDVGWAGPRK
# METHOD_DESCRIPTION: whole-cell patch clamp KV7 current, stable CHO cells
# Format: cell-based
# ASSAY_CONDITIONS: 20 μM; fold; n = 6
Record form. Attribute: Increase of KV7.2 current (20 μM). Fill in for each entry.

Please look up its Increase of KV7.2 current (20 μM): O=c1cc(C(F)(F)F)[nH]c2c(-c3ccccc3)c(C(F)(F)F)nn12 1.20 ± 0.09

Please look up its Increase of KV7.2 current (20 μM): Cc1ccc(-c2cc(C(F)(F)F)nn2-c2ccc(S(=O)(=O)Nc3ncns3)cc2)cc1 1.15 ± 0.08

Please look up its Increase of KV7.2 current (20 μM): O=c1c(-c2ccncc2)c[nH]c2c(-c3ccccc3)c(C(F)(F)F)nn12 1.12 ± 0.07

Please look up its Increase of KV7.2 current (20 μM): O=c1cc(-c2cccnc2)[nH]c2c(-c3ccccc3)c(C(F)(F)F)nn12 1.19 ± 0.10

Please look up its Increase of KV7.2 current (20 μM): O=c1cc(-c2cc(F)c(F)c(F)c2F)[nH]c2c(-c3ccccc3)c(C(F)(F)F)nn12 1.77 ± 0.08

Please look up its Increase of KV7.2 current (20 μM): O=c1cc(-c2ccccc2)[nH]c2c(-c3ccccc3)c(C(F)(F)F)nn12 1.21 ± 0.09

Please look up its Increase of KV7.2 current (20 μM): O=c1cc(-c2ccccn2)[nH]c2c(-c3ccccc3)c(C(F)(F)F)nn12 1.09 ± 0.05

Please look up its Increase of KV7.2 current (20 μM): O=c1cc(-c2cc(F)c(Cl)nc2Cl)[nH]c2c(-c3ccccc3)c(C(F)(F)F)nn12 1.76 ± 0.09

Please look up its Increase of KV7.2 current (20 μM): O=c1cc(CCl)[nH]c2c(-c3ccccc3)c(C(F)(F)F)nn12 1.03 ± 0.05

Please look up its Increase of KV7.2 current (20 μM): Cc1onc(-c2ccccc2)c1-c1ccc(S(=O)(=O)Nc2ncns2)cc1 1.09 ± 0.07

====

# TARGET_ENTITY: NaV1.7 channel (Homo sapiens)
# Sequence (Q15858 whole entry): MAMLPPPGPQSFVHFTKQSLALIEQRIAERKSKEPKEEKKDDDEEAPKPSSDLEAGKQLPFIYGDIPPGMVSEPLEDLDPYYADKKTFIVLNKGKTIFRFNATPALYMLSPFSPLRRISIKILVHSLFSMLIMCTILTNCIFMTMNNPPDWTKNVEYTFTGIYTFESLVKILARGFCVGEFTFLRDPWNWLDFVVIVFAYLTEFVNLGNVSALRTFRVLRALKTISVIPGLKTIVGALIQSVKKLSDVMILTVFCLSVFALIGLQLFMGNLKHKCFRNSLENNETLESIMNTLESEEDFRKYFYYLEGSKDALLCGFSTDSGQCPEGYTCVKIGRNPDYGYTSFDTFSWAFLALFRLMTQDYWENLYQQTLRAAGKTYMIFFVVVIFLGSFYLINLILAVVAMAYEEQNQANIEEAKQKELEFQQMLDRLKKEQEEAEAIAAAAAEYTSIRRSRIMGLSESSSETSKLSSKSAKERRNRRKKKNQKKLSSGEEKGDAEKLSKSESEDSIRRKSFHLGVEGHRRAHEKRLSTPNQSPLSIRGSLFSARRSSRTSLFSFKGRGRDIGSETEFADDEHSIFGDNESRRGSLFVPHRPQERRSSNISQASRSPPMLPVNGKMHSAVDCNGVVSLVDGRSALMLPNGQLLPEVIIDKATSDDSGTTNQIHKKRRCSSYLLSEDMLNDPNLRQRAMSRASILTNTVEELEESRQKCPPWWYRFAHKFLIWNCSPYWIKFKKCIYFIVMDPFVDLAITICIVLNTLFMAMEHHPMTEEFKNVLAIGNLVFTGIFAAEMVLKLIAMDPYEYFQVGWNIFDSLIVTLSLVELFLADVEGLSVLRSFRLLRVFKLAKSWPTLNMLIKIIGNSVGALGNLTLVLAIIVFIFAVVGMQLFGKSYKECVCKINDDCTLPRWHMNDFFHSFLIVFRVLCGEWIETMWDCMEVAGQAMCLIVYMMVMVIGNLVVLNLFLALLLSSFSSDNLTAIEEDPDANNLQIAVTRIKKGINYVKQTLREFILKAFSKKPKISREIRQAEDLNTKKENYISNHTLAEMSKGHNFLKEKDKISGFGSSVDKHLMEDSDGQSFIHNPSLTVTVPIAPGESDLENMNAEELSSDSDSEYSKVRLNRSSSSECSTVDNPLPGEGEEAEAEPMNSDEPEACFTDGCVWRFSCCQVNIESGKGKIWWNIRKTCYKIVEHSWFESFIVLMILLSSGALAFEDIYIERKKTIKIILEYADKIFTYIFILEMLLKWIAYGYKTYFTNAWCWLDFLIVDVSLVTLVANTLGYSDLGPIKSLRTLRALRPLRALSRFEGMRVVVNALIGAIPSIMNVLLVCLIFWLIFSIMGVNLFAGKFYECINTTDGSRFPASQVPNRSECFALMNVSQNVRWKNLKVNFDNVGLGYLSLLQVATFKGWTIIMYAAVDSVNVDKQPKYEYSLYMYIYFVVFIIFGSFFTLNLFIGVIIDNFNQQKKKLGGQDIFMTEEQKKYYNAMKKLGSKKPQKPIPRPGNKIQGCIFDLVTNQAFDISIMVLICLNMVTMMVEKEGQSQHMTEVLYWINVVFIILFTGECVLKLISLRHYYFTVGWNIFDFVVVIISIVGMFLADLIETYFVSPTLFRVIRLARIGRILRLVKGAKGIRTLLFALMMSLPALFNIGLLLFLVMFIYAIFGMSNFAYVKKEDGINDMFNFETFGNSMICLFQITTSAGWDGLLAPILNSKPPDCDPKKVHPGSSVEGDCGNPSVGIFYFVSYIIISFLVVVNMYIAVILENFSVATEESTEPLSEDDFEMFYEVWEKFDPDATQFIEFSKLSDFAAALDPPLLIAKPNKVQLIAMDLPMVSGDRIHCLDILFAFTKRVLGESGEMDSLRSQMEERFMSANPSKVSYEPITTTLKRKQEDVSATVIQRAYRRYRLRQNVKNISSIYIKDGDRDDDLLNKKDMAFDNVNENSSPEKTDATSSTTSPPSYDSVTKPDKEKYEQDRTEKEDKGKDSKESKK
# METHOD_DESCRIPTION: whole-cell patch clamp sodium current, stable HEK cells
# Format: cell-based
# ASSAY_CONDITIONS: HEK293, read-out: Inhibition of NaV1.7 current (20 μM)
Criterion: inhibition at 20 µM meeting or surpassing 30%. Met: condition met. Not met: condition not met.

Quick check, inhibition at 20 µM >= 30%? Cc1onc(-c2ccccc2)c1-c1ccc(S(=O)(=O)Nc2ncns2)cc1 [HW1] condition not met

Quick check, inhibition at 20 µM >= 30%? Cc1ccc(-c2cc(C(F)(F)F)nn2-c2ccc(S(=O)(=O)Nc3ncns3)cc2)cc1 [HW2] condition not met

Quick check, inhibition at 20 µM >= 30%? O=c1cc(C(F)(F)F)[nH]c2c(-c3ccccc3)c(C(F)(F)F)nn12 [QO-28] condition not met

Quick check, inhibition at 20 µM >= 30%? O=c1cc(-c2cccnc2)[nH]c2c(-c3ccccc3)c(C(F)(F)F)nn12 [JZJ005] condition not met

Quick check, inhibition at 20 µM >= 30%? O=c1c(-c2ccncc2)c[nH]c2c(-c3ccccc3)c(C(F)(F)F)nn12 [JZJ006] condition not met

Quick check, inhibition at 20 µM >= 30%? O=c1cc(CCl)[nH]c2c(-c3ccc(Cl)cc3)c(C(F)(F)F)nn12 [QO-66] condition not met

Quick check, inhibition at 20 µM >= 30%? O=c1cc(-c2ccccc2)[nH]c2c(-c3ccccc3)c(C(F)(F)F)nn12 [QO-31] condition not met

Quick check, inhibition at 20 µM >= 30%? O=c1cc(-c2cc(F)c(F)c(F)c2F)[nH]c2c(-c3ccccc3)c(C(F)(F)F)nn12 [QO-72] condition met

Quick check, inhibition at 20 µM >= 30%? O=c1cc(-c2cc(F)c(Cl)nc2Cl)[nH]c2c(-c3ccccc3)c(C(F)(F)F)nn12 [QO-58] condition met
